- study target: T1, TIGIT (UniProt Q495A1 22-141, limits assumed)
- T1 construct: also called T cell immunoreceptor with Ig and ITIM domains; hTIGIT
- T1 sequence (looked up): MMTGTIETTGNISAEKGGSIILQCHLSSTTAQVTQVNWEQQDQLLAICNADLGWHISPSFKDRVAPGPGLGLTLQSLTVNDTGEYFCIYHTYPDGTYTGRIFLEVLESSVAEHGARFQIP
- assay notes: SPR (Carterra)
Reported Kd values follow for various binders

binder: TIGIT-471-048 (antibody, V domains shown, Variable domains only) VH: EVQLLESGGGLVQPGGSLRLSCAASGFTFSNYGVSWVRQAPGKGLEWVGYINPSRGYTYYADSVKGRFTISRDNSKNTLYLQMNSLRAEDTAVYYCARSYGGGFDYWGQGTLVTVSS VL: DIQMTQSPSSLSASVGDRVTITCGASQTIERRLNWYQQKPGKAPKLLIYDASSLHTGVPSRISGSGSGTDFTLTISSLQPEHFATYYCQQSYIIPPTFGQGTKVEIK
unit text: nM
Kd: 51.4
--
binder: TIGIT-471-001 (antibody, V domains shown, Variable domains only) VH: EVQLLESGGGLVQPGGSLRLSCAASGFTFSNYGVSWVRQAPGKGLEWVGYINPSRGYTYYADSVKGRFTISRDNSKNTLYLQMNSLRAEDTAVYYCARSYGGGFDYWGQGTLVTVSS VL: DIQMTQSPSSLSASVGDRVTITCRASQTIERRLNWYQQKPGKAPKLLIYDASSLHTGVPSRFSGSGSGTDFTLTISSLQPEDFATYYCQQSYIIPPTFGQGTKVEIK
unit text: nM
Kd: 61.3
--
binder: TIGIT-471-019 (antibody, V domains shown, Variable domains only) VH: EVQLLESGGGLVQPGGSLRLSCAASGFTFSNYGVSWVRQAHGKGLEWVVYINPSRGYTYYADSVKGRFSISRDNSKNTLYLQMNSLRAEDTAVYYCARSYGGGFDYWGQGTLVTVSS VL: DIQMTQSPSSLSASVGDRVTITCRASQTIERRLNWYQQKPGKAPKLLIYDASSLHTGVPSRFSGSGSGTDFTLTISSLQPEDFATYYCQQSYIIPPTFGQGTKVEIK
unit text: nM
Kd: 164
--
binder: TIGIT-471-038 (antibody, V domains shown, Variable domains only) VH: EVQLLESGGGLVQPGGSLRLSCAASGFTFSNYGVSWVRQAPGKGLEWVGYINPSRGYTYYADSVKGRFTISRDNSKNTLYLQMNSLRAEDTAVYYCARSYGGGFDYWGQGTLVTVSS VL: DIQMTQSPSSLSASVGDRVTITCRASQTIERRLNWYQQKPGKAPKLLIYDASSLHTGVSSRFSGSGSGTYFTLTISSLQAEDFATYYCQQSYIIPPTFGQGTKVEIK
unit text: nM
Kd: 55.4
--
binder: TIGIT-471-035 (antibody, V domains shown, Variable domains only) VH: EVQLLESGGGLVQPGGSLRLSCAASGFTFNAYPMTWVRQAPGKGLEWVSAITGSGGSTYYADSVKGRFTISRDNSKNTLYLQMNSLRAEDTAVYYCARVWRNHLDYWGQGTLVTVSS VL: DIQMTQSPSSLSASVGDRVTITCSGDKLGHTYTSWYQQKPGKAPKLLIYRASTLASGVPSRFSGSGSGTDFTLTISSLQPEDFATYYCQQGYTLPWTFGQGTKVEIK
unit text: nM
Kd: 395
--
binder: TIGIT-471-027 (antibody, V domains shown, Variable domains only) VH: EVQLLESGGGLVQPGGSLRLSCAASGFTFSNYGVSWVRQAPGKGLEWVSWISPHGALTYYADSVKGRFTISRDNSKNTLYLQMNSLKAEDTAVYYCAKGRRRFDYWGQGTLVTVSS VL: DIQMTQSPSSLSASVGDRVTITCRASQTISSYLNWYQQKPGKAPKLLIYENNNRPSGVPSRFSGSGSGTDFTLTISSLQPEDFATYYCQQSYIIPPTFGQGTNVEIK
unit text: nM
Kd: 60
--
binder: TIGIT-471-011 (antibody, V domains shown, Variable domains only) VH: EVQLLESGGGLVQPGGSLRLSCAASGFTFSNYGVSWVRQAPGKGLEWVSSIDWHGWVTYYADSVKGRFTISRDNSKNTLYLQMNSLRAEDTAVYYCVKNALRFDYWGQGTLVTVSS VL: DIQMTQSPSSLSASVGDRVTITCSASQDINKYLNWYQQKPGKAPKLLIYHTSRLQSGVPSRFSGSGSGTDFTLTISSLQPEDFATYYCQQVVWRPFTFGQGTKVEIK
unit text: nM
Kd: 7290
